For each record, write down the corresponding GI50.
system: NCI-H226 lung; assay: NCI tumour cell line growth inhibition, 48 h

For every listed record, write down its GI50.
1. COC(=O)C1=C(O)C(C(=O)OC)[C@@]2(O)[C@@H](C(=O)OC)C(c3ccccc3Cl)C[C@@H]1[C@@H]2C(=O)OC (stereo partly drawn)
2. COC(=O)[C@]1(C)CC[C@]2(C)CC[C@]3(C)C(=CC(=O)[C@@H]4[C@@]5(C)CCC(=O)NC(C)(C)[C@@H]5CC[C@]43C)[C@@H]2C1
3. O=C1C=C(OCC=C(Cl)Cl)C(=O)c2ccccc21
4. COc1ccc(CNC(=O)c2c(C)n([O-])c3cc(F)c(F)cc3[n+]2=O)cc1
5. COc1cc(OC)c2c(c1Cl)O[C@]1(C2=O)C(OCc2ccccc2)=CC(=O)C[C@H]1C
6. C[C@H](c1ccc(Cl)cc1[N+](=O)[O-])N1C(=O)c2cc(I)ccc2NC(=O)[C@H]1c1ccc(Cl)cc1

Output:
1: 3.77 µM; 2: 14.9 µM; 3: 18.7 µM; 4: 16.5 µM; 5: 4.18 µM; 6: > 100 µM

For every listed record, write down its GI50.
1. O=C(N/N=C/c1cccc(O)c1)c1ccc(C(F)(F)F)nc1Nc1cccc(C(F)(F)F)c1
2. CC(=O)Nc1nc(C)c(-c2cc3c(c(S(C)(=O)=O)c2)C(=O)N([C@@H](C)C2CC2)C3)s1

Output:
1: 1.28 µM; 2: 28.7 µM

* * *

system: MDA-N; assay: NCI tumour cell line growth inhibition, 48 h
Where a SMILES comes first, the peptide text is derived from it. The star is where a group is joined. Fmoc = O=C(OCC1c2ccccc2-c2ccccc21)*; Boc = CC(C)(C)OC(=O)*
READOUT_KIND: TGI

Before answering, review these 10 worked examples.
MOLECULE | READOUT_KIND | OBSERVED_RESULT
Cc1cc(C)nc(NS(=O)(=O)c2ccc(NC(=O)c3ccc4nc5ccccc5c(Nc5ccc(S(=O)(=O)Nc6nc(C)cc(C)n6)cc5)c4c3)cc2)n1 | TGI | > 100 µM
CC(=O)c1cccc(NC(=O)/C(=N\NC(=S)NN)C2C(=O)Nc3ccccc3S2=O)c1 (configuration not stated) | TGI | > 100 µM
O=Cc1ccc2[nH]c(=O)oc2c1 | TGI | > 100 µM
CC(C)(C)OC(=O)NCCCCC(NC(=O)C(Cc1c[nH]c2ccccc12)NC(=O)OCC1c2ccccc2-c2ccccc21)C(=O)O (configuration not stated) (Fmoc-Trp-Lys(Boc)-OH; configuration not given here) | TGI | > 100 µM
O=c1ccc2nc3ccc(O)cc3oc-2c1 | TGI | 3.43 µM
Fc1ccc(C(OCCN2CCC3CCC(C2)N3C/C=C/c2cccnc2)c2ccc(F)cc2)cc1 (configuration not stated) | TGI | 23.8 µM
NNC(=O)CSc1nnc(CCCCCCCCc2nnc(SCC(=O)NN)o2)o1 | TGI | > 100 µM
CN(C)c1ccc(/C=N/NC(=O)c2cnc3ccccc3c2)cc1 | TGI | > 100 µM
COc1ccc(NC(C)=O)cc1N1C(=O)/C(=C\c2cccc(Oc3ccccc3)c2)SC1c1ccccc1 (configuration not stated) | TGI | 81.9 µM
CCC(=O)OCN1C(=O)C=CC1=O | TGI | 31.4 µM

For every listed record, write down its TGI.
1. CC(C)C(=O)CP(=O)(O)O
2. CCOC(=O)C(C(=O)OCC)C(NC(=O)Nc1cc(C(F)(F)F)ccc1OC)(C(F)(F)F)C(F)(F)F
3. CN1C(=O)C(O)C[C@@H]1c1ccc(F)cc1 (some centres not stated)
4. CC1OC(n2cnc3c(N)nc(Cl)nc32)C(C)(O)C1O (configuration not stated)
5. COc1ccc2oc3c(ccc[n+]3C)c(=O)c2c1

Output:
1. > 100 µM
2. > 100 µM
3. > 100 µM
4. > 25 µM
5. > 100 µM

For every listed record, write down its TGI.
1. N#Cc1c(Nc2ccccc2)[n+]([O-])c2ccc(Cl)cc2[n+]1[O-]
2. O=C1CC2OCC=C3CN4CCC56c7ccccc7N1C5C2C3CC46 (configuration not stated) (tested in a mixture with another compound)

Output:
1. > 100 µM
2. > 50 µg/mL

* * *

system: COLO 205 colon; assay: NCI tumour cell line growth inhibition, 48 h
READOUT_KIND: GI50

Before answering, review these 5 worked examples.
COMPOUND | OBSERVED_RESULT
Cn1c(=O)c2[nH]cnc2n(C)c1=O.[CH2-]C(Cc1cccc2cc(C(=O)O)c(=O)oc12)OC.[Hg+2].[OH-] (stereo unspecified) | 17100 nM
COc1ccc2c(c1)NC(=O)CN2c1nc(C)nc2ccccc12 | 0.322 nM
O=C(N/N=C/c1cccc(O)c1)c1ccc(C(F)(F)F)nc1Nc1cccc(C(F)(F)F)c1 | 1440 nM
O=C1/C(=C/c2cccc(F)c2)CN(C(=O)C(Cl)Cl)C/C1=C\c1cccc(F)c1 | 332 nM
COc1ccc(CNC(=O)c2c(C)n([O-])c3cc(F)c(F)cc3[n+]2=O)cc1 | 11200 nM

Now for a further compound.
Input: Record lookup: for COLO 205 colon, what GI50 belongs to CCCCCCCCCCCCCCCC(N)c1ccccc1 (stereo unspecified) ?
Output: 1680 nM

* * *

For each record, write down the corresponding TGI.
tested on: SF-295 CNS; test: NCI tumour cell line growth inhibition, 48 h

Before answering, review these 2 worked examples.
COMPOUND | OBSERVED_RESULT
CCOC(=O)/C=C1\C[C@H](NC(=O)OCc2ccccc2)C(=O)N1CC(=O)OCC | > 100 µM
CCN1C(=O)N(CC)C2C1NN=c1s/c(=C\c3cnc(C)n3C)c(=O)n12 (stereo not drawn) | > 100 µM

Now for a further compound.
Input: Can you share its TGI? I mean this compound: `N#CCCN(CCC#N)c1ccc(/C=C2\N=C(c3ccccc3)N(c3ccccc3)C2=O)cc1`
Output: > 100 µM

* * *

test system: A498 renal; assay: NCI tumour cell line growth inhibition, 48 h
READOUT_KIND: TGI

COMPOUND | READOUT_KIND | OBSERVED_RESULT
Cc1cccc(/C=C2\CCCCCC2=O)c1 | TGI | > 100 µM
CC(=O)Nc1cc(CN2CCCCC2)c(O)c2ncccc12 | TGI | > 100 µM
CC(=O)Oc1cc2c(n(C)c1=O)CCC2 | TGI | > 100 µM

For every listed record, write down its TGI.
1. NC(=O)N/N=C/c1ccccc1O
2. CC1OC(n2cnc3c(N)nc(Cl)nc32)C(C)(O)C1O (stereo unspecified)

Output:
["> 100 µM", "> 25 µM"]

Input: Record lookup: for A498 renal, what TGI belongs to `COc1ccc(-c2cc(=O)c3cccnc3[nH]2)cc1` ?
Output: > 100 µM

* * *

For each record, write down the corresponding TGI.
test system: HCT-15 colon; experiment: NCI tumour cell line growth inhibition, 48 h
Give bare numbers, in µM.

COMPOUND | STUDY_SYSTEM | UOM | TGI
CC(=O)OC[C@]12CCC3[C@@]4(C)CCCC(C)(C)C4CC[C@@]3(C)C1CC(C1=CC(=O)OC1O)O2 (stereo not given in full) | HCT-15 colon | µM | 1.98

Now for a further compound.
Input: Can you share its TGI? I mean this compound: `CN1C(=O)C(C)(C)Oc2c(-c3cn(C)c(=O)c4[nH]ccc34)cc(S(C)(=O)=O)cc21`
Output: 39.2

* * *

tested on: KM12 colon; test: NCI tumour cell line growth inhibition, 48 h; in the data active = GI50 below about 0.43 µM; inactive = the rest
Where a SMILES comes first, the peptide text is derived from it. [ ]: non-standard residue; d: D form. The star is where a group is joined. ξ: configuration not given here. dIva = CC[C@@](C)(N)C(=O)O; Aib = CC(C)(N)C(=O)O; ξP = O=C(O)C1CCCN1; βAla = NCCC(=O)O; X5 = OCN*
Hi there, use one of these labels in your reply, thanks! active, inactive

A selection of reference data follows.
COMPOUND | CATEGORY
COc1ccc2c(c1)C(=O)c1c-2n(CCCNCCO)c(=O)c2cc([N+](=O)[O-])ccc12 | active
O=C1/C(=C/c2cccc(F)c2)CN(C(=O)C(Cl)Cl)C/C1=C\c1cccc(F)c1 | active
COc1ccc(/C=C/C(=O)/C=C(/C=C/c2ccc(OC)c(OC)c2OC)OB(F)F)c(OC)c1OC | inactive

Here is another compound to look at.
Input: # fetch the recorded call for CC[C@@](C)(NC(=O)[C@H](C)NC(=O)CCNC(=O)C(C)(C)NC(=O)[C@H](C)NC(=O)[C@@H]1CCCN1C(=O)[C@@](C)(CC)NC(=O)[C@H](Cc1ccccc1)NC(=O)C1CCCN1C(=O)C(C)(C)NC(=O)C1CCCN1C(=O)C(C)(C)NC(C)=O)C(=O)NCCC(=O)N[C@@H](CC(C)C)C(=O)NC(C)(C)C(=O)NCCC(=O)N[C@@H](CC(C)C)C(=O)NC(C)(C)C(=O)NC(C)(C)C(=O)N[C@@H](CC(C)C)C(=O)NCCC(=O)NCO (some centres undefined) (Ac-[Aib][ξP][Aib][ξP]F[dIva]PA[Aib][βAla]A[dIva][βAla]L[Aib][βAla]L[Aib][Aib]L[βAla]-X5) here
Output: active

Where do the numbers come from? From PubChem BioAssay (NCI).
